The entries below come with measured fold change of affinity values attached.
Molecular target: T1, Human CD3eg linker (human)
T1 construct: single-chain construct; also called recombinant human CD3
T1 chain: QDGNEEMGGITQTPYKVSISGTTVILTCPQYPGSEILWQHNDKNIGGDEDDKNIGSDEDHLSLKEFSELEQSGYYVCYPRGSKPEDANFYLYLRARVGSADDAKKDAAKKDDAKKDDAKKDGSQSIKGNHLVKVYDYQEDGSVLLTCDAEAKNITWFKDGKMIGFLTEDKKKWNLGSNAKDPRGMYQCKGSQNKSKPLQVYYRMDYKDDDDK
Test: SPR, vs unmutated H183/L072
Express the result in fold but write the number alone.

Known fold change of affinity results, listed for orientation:
# binder, fold change of affinity [fold]
measured = [
    ("dBBDu183H A98N/dBBDu072L (antibody, name in Kabat numbering, V domains shown) VH: QVQLVESGGGLVQPGRSLRLSCAASGFTFSNAWMHWVRQAPGKGLEWVAQIKDKGNAYAAYYAPSVKGRFTISRDDSKNSIYLQMNSLKTEDTAVYYCHYVHYNSASTVLPAFGVDAWGQGTTVTVSS VL: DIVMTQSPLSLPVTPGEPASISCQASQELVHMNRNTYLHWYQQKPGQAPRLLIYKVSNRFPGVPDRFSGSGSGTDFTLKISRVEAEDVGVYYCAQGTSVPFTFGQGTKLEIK", 1.5),
    ("dBBDu183H Y94N/dBBDu072L (antibody, name in Kabat numbering, V domains shown) VH: QVQLVESGGGLVQPGRSLRLSCAASGFTFSNAWMHWVRQAPGKGLEWVAQIKDKGNAYAAYYAPSVKGRFTISRDDSKNSIYLQMNSLKTEDTAVYYCHNVHYASASTVLPAFGVDAWGQGTTVTVSS VL: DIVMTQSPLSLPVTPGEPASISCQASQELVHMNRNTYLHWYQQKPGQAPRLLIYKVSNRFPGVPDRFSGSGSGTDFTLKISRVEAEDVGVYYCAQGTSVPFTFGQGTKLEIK", 0),
    ("dBBDu183H S99D/dBBDu072L (antibody, name in Kabat numbering, V domains shown) VH: QVQLVESGGGLVQPGRSLRLSCAASGFTFSNAWMHWVRQAPGKGLEWVAQIKDKGNAYAAYYAPSVKGRFTISRDDSKNSIYLQMNSLKTEDTAVYYCHYVHYADASTVLPAFGVDAWGQGTTVTVSS VL: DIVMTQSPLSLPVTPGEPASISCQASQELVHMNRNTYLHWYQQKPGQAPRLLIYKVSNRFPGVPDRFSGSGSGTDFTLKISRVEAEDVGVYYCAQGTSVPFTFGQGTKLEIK", 0.3),
    ("dBBDu183H K64E/dBBDu072L (antibody, name in Kabat numbering, V domains shown) VH: QVQLVESGGGLVQPGRSLRLSCAASGFTFSNAWMHWVRQAPGKGLEWVAQIKDKGNAYAAYYAPSVEGRFTISRDDSKNSIYLQMNSLKTEDTAVYYCHYVHYASASTVLPAFGVDAWGQGTTVTVSS VL: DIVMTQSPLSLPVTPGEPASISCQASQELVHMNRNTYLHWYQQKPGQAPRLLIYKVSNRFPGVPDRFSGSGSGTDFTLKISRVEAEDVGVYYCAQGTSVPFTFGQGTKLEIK", 1),
    ("dBBDu183H A98H/dBBDu072L (antibody, name in Kabat numbering, V domains shown) VH: QVQLVESGGGLVQPGRSLRLSCAASGFTFSNAWMHWVRQAPGKGLEWVAQIKDKGNAYAAYYAPSVKGRFTISRDDSKNSIYLQMNSLKTEDTAVYYCHYVHYHSASTVLPAFGVDAWGQGTTVTVSS VL: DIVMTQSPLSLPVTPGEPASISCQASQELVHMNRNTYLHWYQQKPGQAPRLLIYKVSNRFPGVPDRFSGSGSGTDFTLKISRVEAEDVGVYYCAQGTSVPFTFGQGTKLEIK", 5.9),
    ("dBBDu183H L100dN/dBBDu072L (antibody, name in Kabat numbering, V domains shown) VH: QVQLVESGGGLVQPGRSLRLSCAASGFTFSNAWMHWVRQAPGKGLEWVAQIKDKGNAYAAYYAPSVKGRFTISRDDSKNSIYLQMNSLKTEDTAVYYCHYVHYASASTVNPAFGVDAWGQGTTVTVSS VL: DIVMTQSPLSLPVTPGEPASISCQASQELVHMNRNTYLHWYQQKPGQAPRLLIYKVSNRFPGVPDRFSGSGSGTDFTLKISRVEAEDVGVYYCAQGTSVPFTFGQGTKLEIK", 1.2),
    ("dBBDu183H V100iW/dBBDu072L (antibody, name in Kabat numbering, V domains shown) VH: QVQLVESGGGLVQPGRSLRLSCAASGFTFSNAWMHWVRQAPGKGLEWVAQIKDKGNAYAAYYAPSVKGRFTISRDDSKNSIYLQMNSLKTEDTAVYYCHYVHYASASTVLPAFGWDAWGQGTTVTVSS VL: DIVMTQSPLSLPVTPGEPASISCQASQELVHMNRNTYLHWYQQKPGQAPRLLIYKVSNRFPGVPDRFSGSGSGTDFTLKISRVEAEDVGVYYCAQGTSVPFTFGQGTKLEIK", 4.9),
    ("dBBDu183H H96G/dBBDu072L (antibody, name in Kabat numbering, V domains shown) VH: QVQLVESGGGLVQPGRSLRLSCAASGFTFSNAWMHWVRQAPGKGLEWVAQIKDKGNAYAAYYAPSVKGRFTISRDDSKNSIYLQMNSLKTEDTAVYYCHYVGYASASTVLPAFGVDAWGQGTTVTVSS VL: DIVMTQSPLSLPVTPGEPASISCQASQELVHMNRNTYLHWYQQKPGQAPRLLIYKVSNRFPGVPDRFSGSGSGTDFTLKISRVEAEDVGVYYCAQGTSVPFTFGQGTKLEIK", 0.2),
]

Please look at this binder and report its fold change of affinity: dBBDu183H A100N/dBBDu072L (antibody, name in Kabat numbering, V domains shown) VH: QVQLVESGGGLVQPGRSLRLSCAASGFTFSNAWMHWVRQAPGKGLEWVAQIKDKGNAYAAYYAPSVKGRFTISRDDSKNSIYLQMNSLKTEDTAVYYCHYVHYASNSTVLPAFGVDAWGQGTTVTVSS VL: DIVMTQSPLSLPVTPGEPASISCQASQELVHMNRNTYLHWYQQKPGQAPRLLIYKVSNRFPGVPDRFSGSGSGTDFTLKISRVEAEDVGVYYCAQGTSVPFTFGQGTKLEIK
0.8

Note down fold change of affinity recorded for dBBDu183H V100cE/dBBDu072L (antibody, name in Kabat numbering, V domains shown) VH: QVQLVESGGGLVQPGRSLRLSCAASGFTFSNAWMHWVRQAPGKGLEWVAQIKDKGNAYAAYYAPSVKGRFTISRDDSKNSIYLQMNSLKTEDTAVYYCHYVHYASASTELPAFGVDAWGQGTTVTVSS VL: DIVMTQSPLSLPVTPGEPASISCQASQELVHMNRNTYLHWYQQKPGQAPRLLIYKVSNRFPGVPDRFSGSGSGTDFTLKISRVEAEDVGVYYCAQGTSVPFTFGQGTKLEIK
0.8
